# EXPERIMENT_NOTES: Compound is evaluated for acute toxicity in mice
# Format: organism-based
# EXPERIMENTAL_CONTEXT: mouse, in vivo
QUANTITY: LD50 (mg/kg)
Field format: number, assumed mg/kg, no unit text.

Task: Which LD50 is listed for CC[C@H](C)[C@H]1O[C@@]2(C[C@@H]3C[C@@H](C/C=C(\C)[C@H](O[C@H]4C[C@H](OC)C(O[C@H]5C[C@H](OC)[C@@H](O)[C@H](C)O5)[C@H](C)O4)[C@@H](C)/C=C/C=C4\CO[C@@H]5[C@H](O)C(C)=C[C@@H](C(=O)O3)[C@]45O)O2)C[C@H](O)[C@@H]1C (some centres undefined) ?
Result: 540

Task: For the compound shown here, "CC[C@H](C)[C@H]1O[C@]2(C=C[C@@H]1C)C[C@@H]1C[C@@H](C/C=C(\C)[C@@H](O[C@H]3C[C@H](OC)[C@@H](O[C@H]4C[C@H](OC)[C@@H](O)[C@H](C)O4)[C@H](C)O3)[C@@H](C)/C=C/C=C3\CO[C@@H]4[C@H](O)C(C)=C[C@@H](C(=O)O1)[C@]34O)O2" , give the reported LD50.
Result: 19

Task: Quick one: LD50 of COC1CC(OC2C(C)OC(O[C@@H]3/C(C)=C/C[C@@H]4C[C@@H](C[C@]5(CC(O)[C@H](C)[C@@H](C(C)C)O5)O4)OC(=O)[C@@H]4C=C(C)[C@@H](O)[C@H]5OC/C(=C\C=C\[C@@H]3C)[C@]54O)CC2OC)OC(C)C1O (some centres undefined) ?
Result: 50

Task: Data request, read-out LD50, for CC[C@H](C)[C@H]1O[C@]2(C=C[C@@H]1C)C[C@@H]1C[C@@H](C/C=C(\C)[C@H](O[C@H]3C[C@H](OC)C(O[C@H]4C[C@H](OC)[C@@H](O)[C@H](C)O4)[C@H](C)O3)[C@@H](C)/C=C/C=C3\CO[C@@H]4[C@H](O)C(C)=C[C@@H](C(=O)O1)[C@]34O)O2 (some centres undefined)
Result: 160

Value source: ChEMBL document CHEMBL1125321
